Data provenance is paper PMC11878344.

Target: NanoLuc luciferase MAGL fusion protein in HEK293A cells (Homo sapiens, UniProt Q99685)
Construct: expressed in transfected cells
Sequence (Q99685 1-303): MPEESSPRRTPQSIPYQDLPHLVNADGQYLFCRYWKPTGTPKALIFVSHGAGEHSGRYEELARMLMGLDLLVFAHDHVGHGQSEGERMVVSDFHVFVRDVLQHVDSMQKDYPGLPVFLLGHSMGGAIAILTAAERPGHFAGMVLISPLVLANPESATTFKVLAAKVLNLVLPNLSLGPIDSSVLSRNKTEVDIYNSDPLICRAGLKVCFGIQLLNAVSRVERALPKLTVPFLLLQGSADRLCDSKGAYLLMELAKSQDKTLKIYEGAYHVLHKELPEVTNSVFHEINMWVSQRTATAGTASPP
Assay: Cellular MAGL NanoBRET target engagement assay
Assay type: cell-based
Conditions: Table 1; transfected HEK293 cells; n=1 to 3; read-out: HEK293 nanoBRET IC50
READOUT KIND: IC50 (nM)

// solved cases for IC50 follow
>  <SMI>
O=C1CO[C@H]2CCN(C(=O)N3CC(COCc4cccc(OCCNC(=O)OCc5ccccc5)c4)C3)C[C@H]2N1

>  <IC50 [nM]>
406

$$$$
>  <SMI>
O=C1NC2(CO1)CN(C(=O)N1CC(COCc3ccccc3OCCNc3ccc([N+](=O)[O-])c4nonc34)C1)C2

>  <IC50 [nM]>
318

$$$$
>  <SMI>
O=C(NCCOc1ccccc1COCC1CN(C(=O)OC(C(F)(F)F)C(F)(F)F)C1)OCc1ccccc1

>  <IC50 [nM]>
222

$$$$

A: O=C1NC2(CO1)CN(C(=O)N1CC3(CC(Cc4ccccc4OCCNc4ccc([N+](=O)[O-])c5c4NON5)C3)C1)C2
B: O=C1CO[C@H]2CCN(C(=O)N3CC(COCc4ccccc4OCCNC(=O)OCc4ccccc4)C3)C[C@H]2N1
C: O=C(NCCOc1ccccc1COCC1CN(C(=O)N2CC3(COC(=O)N3)C2)C1)OCc1ccccc1
I would appreciate it if you could sort these 3 compounds by IC50, starting from the smallest number. Respond with an ordered listing of the labels, as requested. C, B, A
(C: 61 nM, B: 141 nM, A: 307 nM)
